Recorded pIC50 by entry
- System: AR mRNA
- TEST DESCRIPTION: Dose-dependent antisense inhibition of human AR in HuVEC cells (electroporation, qRT-PCR RTS3559, IC50)
- Format: cell-based
- MEASUREMENT CONTEXT: HuVEC, ~16 h; Table 10
pIC50: −log10 of the molar value. Oligonucleotides are written 5' to 3', each unit as a sugar letter and its base; * is a phosphorothioate linkage, no mark a phosphodiester; rarer units and linkages stand in square brackets, end groups in braces. Plain capitals give the bases only. e = 2'-O-(2-methoxyethyl) (MOE); k = constrained ethyl (cEt); [5mC] = 5-methylcytosine; d = 2'-deoxy (DNA)
PROPERTY MEASURED: pIC50

                                  substance  property_measured  obs_value
0  549458 (kG*kT*kT*dG*dA*dT*dT*dT*dA*dA*dT*dG*dG*kT*kT*kG) [compound 549458]              pIC50       6.69
1  579667 (antisense eT*kT*kG*eA*eT*kT*kT*dA*dA*dT*dG*dG*dT*dT*kG*k[5mC]) [compound 579667]              pIC50       6.39
2  569236 (antisense eT*kG*kA*kT*dT*dT*dA*dA*dT*dG*dG*kT*kT*kG*e[5mC]*eA) [compound 569236]              pIC50       6.60
3  579666 (antisense eT*kG*kA*eT*eT*kT*kA*dA*dT*dG*dG*dT*dT*dG*k[5mC]*kA) [compound 579666]              pIC50       6.64
4  569228 (antisense eT*eT*kG*kA*kT*dT*dT*dA*dA*dT*dG*dG*kT*kT*kG*e[5mC]) [compound 569228]              pIC50       6.80
5  569227 (antisense eT*eG*kA*kT*kT*dT*dA*dA*dT*dG*dG*dT*kT*kG*k[5mC]*eA) [compound 569227]              pIC50       6.41

* * *

Entries annotated with measured Percent inhibition of AR full-length mRNA
- Tested on: AR full-length mRNA
- TEST DESCRIPTION: AR full-length mRNA in CWR22-RV1 cells (RNAiMax, RTS3559)
- Format: cell-based, human
- MEASUREMENT CONTEXT: dose 50.0 nM, 6 days
Oligonucleotides are written 5' to 3', each unit as a sugar letter and its base; * is a phosphorothioate linkage, no mark a phosphodiester; rarer units and linkages stand in square brackets, end groups in braces. Plain capitals give the bases only. e = 2'-O-(2-methoxyethyl) (MOE); k = constrained ethyl (cEt); [5mC] = 5-methylcytosine; d = 2'-deoxy (DNA)
PROPERTY MEASURED: Percent inhibition of AR full-length mRNA

SEQUENCE CODE	MEASURED TARGET	OBS VALUE
ACCAAGTTTCTTCAGC (LNA gapmer, phosphorothioate backbone, further chemistry not given here) [ISIS 554221, 3-10-3 LNA gapmer, phosphorothioate backbone, targeted to exon 4 of AR; benchmark, reference compound]	AR full-length mRNA	72%
CTAAACTTCCCGTGGC (k[5mC]*kT*kA*dA*dA*d[5mC]*dT*dT*d[5mC]*d[5mC]*d[5mC]*dG*dT*kG*kG*k[5mC]) [ISIS 549434, targets 3'-end of exon 8]	AR full-length mRNA	86%
AAGTTGTAGTAGTCGC (kA*kA*kG*dT*dT*dG*dT*dA*dG*dT*dA*dG*dT*k[5mC]*kG*k[5mC]) [ISIS 549372, targets exon 1]	AR full-length mRNA	78%
GTTGATTTAATGGTTG (all phosphorothioate, sugars by position not given here; further chemistry not fully specified) [ISIS 549458]	AR full-length mRNA	78%
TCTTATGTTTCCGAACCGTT (sugars from the 5' end e5 d10 e5, backbone and methylation of C not given here) [ISIS 347526, reference compound]	AR full-length mRNA	0%
